Tested on: MOLT-4 leukemia
Experiment: NCI-60 one-dose screen, 48 h
Settings: 10 µM unless noted
Description: Growth inhibition of the MOLT-4 human tumor cell line is measured as a screen for anti-cancer activity. Cells are grown in 96 well plates and exposed to the test compound for 48 hours. Compounds are tested at a single concentration, which is 10^-5 M for most compounds. The reported endpoint is percent growth (GI% or GIPRCNT), where numbers from 0 - 100% represent growth inhibition, and numbers from -100% - 0 represent cell death. For example, a value of 40 represents 60% growth inhibition. […]
The panel holds about 83,000 compounds, 20% with a hit somewhere; the sample as a whole holds those more often. The source made the active and inactive calls. How the source made its calls: active means growth percent below 10; inactive means the rest.
Your answer must be one of the following: active, inactive

[[record]]
smiles_code = "COc1cc(/C=C/C(=O)c2cccc(Nc3nc(Nc4ccccc4)nc(Nc4ccccc4)n3)c2)cc(OC)c1OC"
label = "active"

[[record]]
smiles_code = "COc1ccc(-c2ccc3cnc4sc(-c5ccc(OC)cc5)nc4c3n2)cc1"
label = "inactive"

[[record]]
smiles_code = "CN(C)c1ccc(/C=C/C(=O)c2ccc(-n3cc(CN4CCN(c5cc6c(cc5F)c(=O)c(C(=O)O)cn6C5CC5)CC4)nn3)cc2)cc1"
label = "inactive"

[[record]]
smiles_code = "O=Nc1c(-c2c(O)[nH]c3ncccc23)[nH]c2ccccc12"
label = "inactive"

[[record]]
smiles_code = "N#Cc1c(-c2ccccc2)cc(-c2ccccc2)n(CCCCCC(=O)Nc2ccccc2N)c1=O"
label = "active"


Query: What outcome does the record of this test show for "C=CC(=O)NCc1ccc(Nc2nccc(-c3ccc(N4CCCC4)c(C#N)c3)n2)cc1" ?
Result: inactive
